# Lookup of reported IC90 keyed by entry
# System: MG63 (osteosarcoma)
# Test method notes: Solid tumor cell growth inhibition, MTT, 72 h (Example 7)
# Format: cell-based, human
# Condition set: Homo sapiens; 72 h, MTT, MG-63
I only need the number, in µg/mL, no unit after it.

COc1ccc2cc1Oc1ccc(cc1)C[C@H]1c3cc(c(OC)cc3CCN1C)Oc1c(OC)c(OC)c(COCCn3ccnc3)c3c1[C@H](C2)N(C)CC3 [BS-TE-418]	4.45
COc1ccc2cc1Oc1ccc(cc1)C[C@H]1c3cc(c(OC)cc3CCN1C)Oc1c(OC)c(OC)c(CN3CC=CC3)c3c1[C@H](C2)N(C)CC3 [BS-TE-329]	35.6

[ask] Name the recorded IC90 for CCN1CCN(Cc2c3c4c(c(OC)c2OC)Oc2cc5c(cc2OC)CCN(C)[C@H]5Cc2ccc(cc2)Oc2cc(ccc2OC)C[C@@H]4N(C)CC3)CC1 [BS-TE-342] .
[reply] 1.9
